Reference for the values: patent US20200231684A1

Target: T1, human IL-36R on cells (human, UniProt Q9HB29 20-575)
T1 sequence (looked up): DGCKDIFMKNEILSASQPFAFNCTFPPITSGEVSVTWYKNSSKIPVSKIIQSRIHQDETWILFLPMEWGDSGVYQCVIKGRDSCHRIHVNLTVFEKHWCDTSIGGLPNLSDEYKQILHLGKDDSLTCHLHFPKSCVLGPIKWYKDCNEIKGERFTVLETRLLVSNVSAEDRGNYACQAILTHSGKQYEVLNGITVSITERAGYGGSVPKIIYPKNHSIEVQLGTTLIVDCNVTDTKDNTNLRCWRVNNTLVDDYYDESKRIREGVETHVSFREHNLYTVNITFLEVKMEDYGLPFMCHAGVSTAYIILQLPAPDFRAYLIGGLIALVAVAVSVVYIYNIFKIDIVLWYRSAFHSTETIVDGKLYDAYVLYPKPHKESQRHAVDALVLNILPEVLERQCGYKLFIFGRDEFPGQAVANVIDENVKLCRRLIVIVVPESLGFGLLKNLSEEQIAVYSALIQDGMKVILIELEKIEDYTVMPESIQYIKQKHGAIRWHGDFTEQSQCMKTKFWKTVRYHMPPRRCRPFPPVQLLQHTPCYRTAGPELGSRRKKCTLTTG
Test: cell-based or functional assay
property: IC90, IL-8 release, human primary keratinocytes (NHK), trun-IL-36g

So for antibody 78C8 (antibody, V domains shown, Mouse monoclonal from hybridoma; also called 78C8D1; Mouse 78C8) VH: QVQLKESGPVLVAPSQSLSITCTVSGFSLTKFGVHWIRQTPGKGLEWLGVIWAGGPTNYNSALMSRLTISKDISQSQVFLRIDSLQTDDTAMYYCAKQIYYSTLVDYWGQGTSVTVSS VL: DVLLTQTPLSLPVSLGDQASISCRSSQNIVHSNGNTYLQWYLQKPGQSPKLLIYKVSNRFSGVPDRFSGSGSGTDFTLKISRVEAEDLGVYYCFQGSHVPFTFGAGTKLELK , the logged IC90, IL-8 release, human primary keratinocytes (NHK), trun-IL-36g turned out to be 3.6 nM
